# ASSAY NOTES: MSLI test of formulations made from micronisation trial batches, Example 7
# Assay type: physicochemical
# CONDITION DESCRIPTION: T = 0; 20 μg dose in 25 mg powder, 0.15% magnesium stearate, gelatin capsules
MEASURED QUANTITY: MMAD (μm)
Return type: number; implicit unit μm.

Consider the worked cases shown below.
| MOLECULE | MMAD (μm) |
| --- | --- |
| C[N+]1(C)CCC(OC(=O)C(O)(c2ccccc2)C2CCCC2)C1.[Br-] (stereo not shown) [Formulation A1] | 2.8 |
| C[N+]1(C)CCC(OC(=O)C(O)(c2ccccc2)C2CCCC2)C1.[Br-] (stereo not shown) [Formulation C3] | 3.2 |
| C[N+]1(C)CCC(OC(=O)C(O)(c2ccccc2)C2CCCC2)C1.[Br-] (stereo not shown) [Formulation C2] | 3.3 |

// next entry
Entry C[N+]1(C)CCC(OC(=O)C(O)(c2ccccc2)C2CCCC2)C1.[Br-] (stereo not shown) [Formulation A3] — recorded MMAD = 2.8
